Measured Emax accompanies every entry in the list below.
Biological target: human mGluR5a receptor (Homo sapiens)
Assay: Cell-based functional assay: Ca2+ mobilization (FDSS), potentiation of glutamate EC20 response
Settings: maximum average response at a single concentration, as percent of maximal glutamate response
quantity.kind: Emax (%)

• O=C1c2ncc(COc3ccccc3)cc2CCN1c1ccc(F)cc1 [compound 8] = 76
• O=C1c2cc(OCc3ccccc3)cnc2CCN1CC1CCC1 [compound 22] = 52
• O=C1NCCc2ncc(OCc3ccccc3)cc21 [compound 15] = 43

----------
Measured Emax accompanies every entry in the list below.
Target: human mGluR5a receptor (Homo sapiens)
Assay: Cell-based functional assay: Ca2+ mobilization (FDSS), potentiation of glutamate EC20 response
Settings: maximum average response at a single concentration, as percent of maximal glutamate response
quantity.kind: Emax (%)

• COc1ccc(CN2CCc3nc(OCc4cccc(F)c4)ccc3C2=O)cc1C(F)(F)F = 40
• O=C1c2ccc(OCc3ccccc3)nc2CCN1CC1CCC1 = 49
• O=C1NCCc2nc(OCc3cccc(F)c3)ccc21 = 71
• O=C1c2ccc(OCc3cccc(F)c3)nc2CCN1c1cccc(F)c1 = 41
• COc1ccc(CN2CCc3ncc(OCc4ccccc4)cc3C2=O)cc1 = 46
• O=C1c2cc(OCc3ccccc3)cnc2CCN1c1ccc(F)cc1F = 67
• O=C1c2ccc(OCc3cccc(F)c3)nc2CCN1CC1CCC1 = 39
• O=C1c2ccc(COc3cccc(F)c3)nc2CCN1c1ccc(F)cc1 = 72
• C[C@H](N1CCc2cc(COc3ccccc3)cnc2C1=O)C(C)(C)C = 15
• CN1CCc2ncc(COc3cccc(F)c3)cc2C1=O = 44
• O=C1NCCc2nc(OCc3cccc(Cl)c3)ccc21 = 55
• O=C1NCCc2cc(COc3ccccc3)cnc21 = 43
• CN1CCc2cc(COc3ccccc3)cnc2C1=O = 21
• O=C1NCCc2nc(OCc3ccccc3F)ccc21 = 79
• O=C1c2ccc(OCc3ccccc3)nc2CCN1c1ccc(F)cc1 = 66
• COc1ccc(CN2CCc3ncc(COc4cccc(F)c4)cc3C2=O)cc1 = 64
• O=C1c2ccc(OCc3cccc(F)c3)nc2CCN1c1ccc(F)cn1 = 40
• O=C1c2ccc(OCc3cccc(F)c3)nc2CCN1Cc1cccc(Cl)c1F = 39
• O=C1c2cc(OCc3ccccc3)cnc2CCN1c1ccc(F)cc1 = 34
• O=C1c2ccc(COc3cccc(F)c3)nc2CCN1c1ccc(F)cn1 = 66

----------
Biological target: human mGluR5a receptor (Homo sapiens, UniProt P41594)
Sequence (P41594 21-1180 isoform P41594-2 limits assumed): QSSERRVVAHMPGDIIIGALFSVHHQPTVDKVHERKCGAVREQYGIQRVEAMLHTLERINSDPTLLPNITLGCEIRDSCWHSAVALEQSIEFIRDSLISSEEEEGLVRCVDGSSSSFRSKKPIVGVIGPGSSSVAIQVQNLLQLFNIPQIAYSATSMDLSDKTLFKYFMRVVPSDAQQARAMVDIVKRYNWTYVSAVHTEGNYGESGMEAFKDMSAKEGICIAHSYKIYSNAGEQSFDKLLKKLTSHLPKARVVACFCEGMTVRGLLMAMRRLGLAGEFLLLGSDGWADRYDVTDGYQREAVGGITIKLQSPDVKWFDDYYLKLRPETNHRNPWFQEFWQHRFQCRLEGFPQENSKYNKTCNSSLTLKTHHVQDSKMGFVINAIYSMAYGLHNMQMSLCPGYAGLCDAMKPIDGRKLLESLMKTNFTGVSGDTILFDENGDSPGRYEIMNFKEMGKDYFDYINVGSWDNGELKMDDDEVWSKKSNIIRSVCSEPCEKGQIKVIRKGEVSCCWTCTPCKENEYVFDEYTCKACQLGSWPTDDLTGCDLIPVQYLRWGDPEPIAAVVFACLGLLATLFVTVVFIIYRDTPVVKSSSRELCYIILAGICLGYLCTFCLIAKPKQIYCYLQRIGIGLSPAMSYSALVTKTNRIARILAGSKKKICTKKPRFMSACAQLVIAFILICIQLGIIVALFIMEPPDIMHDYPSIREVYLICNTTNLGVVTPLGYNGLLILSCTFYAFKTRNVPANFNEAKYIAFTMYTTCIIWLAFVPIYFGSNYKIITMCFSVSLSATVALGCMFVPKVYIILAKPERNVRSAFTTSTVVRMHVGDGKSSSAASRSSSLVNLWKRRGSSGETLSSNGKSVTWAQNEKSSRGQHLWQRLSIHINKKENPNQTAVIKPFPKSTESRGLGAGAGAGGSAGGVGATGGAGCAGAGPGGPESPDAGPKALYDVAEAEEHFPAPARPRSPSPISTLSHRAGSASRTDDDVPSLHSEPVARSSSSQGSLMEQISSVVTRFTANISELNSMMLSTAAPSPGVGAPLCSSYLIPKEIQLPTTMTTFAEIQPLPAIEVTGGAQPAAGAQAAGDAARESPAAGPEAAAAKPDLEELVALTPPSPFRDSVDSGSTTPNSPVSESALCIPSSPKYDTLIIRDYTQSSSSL
Test: Cell-based functional assay: Ca2+ mobilization (FDSS), potentiation of glutamate EC20 response
Conditions: HEK cells (H10H or H12H) transfected with human mGluR5, in presence of EC20 glutamate; >10 uM estimated where no plateau but >20% increase
Measured EC50 accompanies every entry in the list below.
quantity.kind: EC50

- Cc1cccc(N2CCc3ncc(OCc4ccccc4)cc3C2=O)n1: > 30000 nM
- O=C1NCCc2cc(COc3ccccc3)cnc21: > 30000 nM
- O=C1NCCc2nc(OCc3cccc(F)c3)ccc21: 370 nM
- O=C1c2ccc(OCc3ccccc3)nc2CCN1c1ccc(F)cc1: 125 nM
- O=C1c2ccc(COc3cccc(F)c3)nc2CCN1c1ccc(F)cn1: 360 nM
- O=C1c2ccc(OCc3cccc(F)c3)nc2CCN1CC1CCC1: 630 nM

----------
Measured EC50 accompanies every entry in the list below.
Molecular target: human mGluR5a receptor (Homo sapiens, UniProt P41594)
Test: Cell-based functional assay: Ca2+ mobilization (FDSS), potentiation of glutamate EC20 response
Conditions: HEK cells (H10H or H12H) transfected with human mGluR5, in presence of EC20 glutamate; >10 uM estimated where no plateau but >20% increase
Protocol: Table 1 below lists specific compounds as well as experimentally determined mGluR5 activity determined in a cell-based assay. The mGluR5 activity was determined using the metabotropic glutamate receptor activity assays in human embryonic kidney cells as described herein, wherein the human embryonic kidney cells were transfected with human mGluR5. The compounds in Table 1 were synthesized with methods identical or analogous to those shown herein. […]
quantity.kind: EC50 (µM)

• O=C1c2ccc(COc3cccc(F)c3)nc2CCN1c1ccc(F)cc1 = 0.2
• O=C1c2ccc(OCc3ccccc3)nc2CCN1CC1CCC1 = 0.441
• O=C1NCCc2nc(OCc3cccc(Cl)c3)ccc21 = 0.19
• COc1ccc(CN2CCc3ncc(COc4cccc(F)c4)cc3C2=O)cc1 = 1.6
• O=C1c2ncc(COc3ccccc3)cc2CCN1c1ccc(F)cc1 = 0.73
• O=C1c2cc(OCc3ccccc3)cnc2CCN1CC1CCC1 = 2.76
• O=C1c2ccc(OCc3cccc(F)c3)nc2CCN1c1cccc(F)c1 = 0.98
• O=C1NCCc2nc(OCc3ccccc3F)ccc21 = 0.7
• O=C1c2ccc(OCc3cccc(F)c3)nc2CCN1Cc1cccc(Cl)c1F = 4.2

----------
Target: UniProt:P41594
Assay: Cell-based functional assay: Ca2+ mobilization (FDSS), potentiation of glutamate EC20 response
Conditions: HEK cells (H10H or H12H) transfected with human mGluR5, in presence of EC20 glutamate; >10 uM estimated where no plateau but >20% increase
quantity.kind: EC50

* O=C1c2ccc(OCc3cccc(F)c3)nc2CCN1c1ccc(F)cn1 | > 10 µM
* O=C1c2cc(OCc3ccccc3)cnc2CCN1c1ccc(F)cc1F | > 10 µM
* O=C1c2cc(OCc3ccccc3)cnc2CCN1c1cccnc1 | > 30 µM
* O=C1NCCc2ncc(OCc3ccccc3)cc21 | > 10 µM
* O=C1c2cc(OCc3ccccc3)cnc2CCN1c1ccccn1 | > 30 µM
* CN1CCc2cc(COc3ccccc3)cnc2C1=O | > 30 µM
* COc1ccc(CN2CCc3nc(OCc4cccc(F)c4)ccc3C2=O)cc1C(F)(F)F | > 10 µM
* C[C@H](N1CCc2cc(COc3ccccc3)cnc2C1=O)C(C)(C)C | > 30 µM
* O=C1c2cc(OCc3ccccc3)cnc2CCN1c1ccc(F)cc1 | > 10 µM
* CN1CCc2ncc(COc3cccc(F)c3)cc2C1=O | > 10 µM
* COc1ccc(CN2CCc3ncc(OCc4ccccc4)cc3C2=O)cc1 | > 10 µM
